conditions: in n-heptane, 303 K
quantity kind: solubility (mole fraction)

INSERT INTO results (smi, reported_result) VALUES
  ('Cc1cccc(Nc2ccccc2C(=O)O)c1C', 0.0013);

----------
details: in n-heptane, 323 K
quantity kind: solubility (mole fraction)

INSERT INTO measurements (smi, reported_result) VALUES
  ('Cc1cccc(Nc2ccccc2C(=O)O)c1C', 0.0022);

----------
details: in ethanol, 318 K
quantity kind: solubility (mole fraction)

INSERT INTO results (smi, quantity_kind, reported_result) VALUES
  ('Cc1cccc(Nc2ccccc2C(=O)O)c1C', 'solubility (mole fraction)', 0.0037);

----------
details: in isopropanol, 318 K
quantity kind: solubility (mole fraction)

INSERT INTO assay_data (smi, reported_result) VALUES
  ('Cc1cccc(Nc2ccccc2C(=O)O)c1C', 0.004);
